- EXPERIMENT_SUMMARY: Cmax in Sprague-Dawley rat at 1 mg/kg, iv by LC-MS/MS analysis
- Assay type: ADME, organism-based
- Parameters: route intravenous, dose 1 mg/kg
- TEST_CONDITIONS: in vivo
OBSERVATION_TYPE: Cmax
Just the number plus its unit, please.

Prompt: Find the recorded Cmax belonging to COc1ccc(C(Oc2ccc(N(CC(=O)O)S(=O)(=O)c3c(C)cc(C)cc3C)c3ccccc23)C(=O)O)cc1 (stereo unspecified) and report it.
Response: 15100 ng/mL

###

- EXPERIMENT_SUMMARY: AUC (0 to t) in Sprague-Dawley rat at 1 mg/kg, iv by LC-MS/MS analysis
- Format: ADME, organism-based
- TEST_CONDITIONS: in vivo
OBSERVATION_TYPE: AUC(0-t) (ng·h/mL)
Your answer should be a plain number; it is taken to be in ng·h/mL.

Prompt: Find the recorded AUC(0-t) belonging to COc1ccc(C(Oc2ccc(N(CC(=O)O)S(=O)(=O)c3c(C)cc(C)cc3C)c3ccccc23)C(=O)O)cc1 (stereo unspecified) and report it.
Response: 2550

###

- EXPERIMENT_SUMMARY: Hepatic clearance in CD-1 rat liver microsomes preincubated for 5 mins followed by NADPH addition and measured after 45 mins by LC-MS/MS analysis
- Format: ADME, Microsome
OBSERVATION_TYPE: CLhep predicted at […] (mL/min/kg)
Your answer should be a plain number; it is taken to be in mL/min/kg.

Prompt: Find the recorded CLhep predicted at […] belonging to COc1ccc(C(Oc2ccc(N(CC(=O)O)S(=O)(=O)c3c(C)cc(C)cc3C)c3ccccc23)C(=O)O)cc1 (stereo unspecified) and report it.
Response: 2.69

###

- EXPERIMENT_SUMMARY: Intrinsic clearance in CD-1 rat liver microsomes preincubated for 5 mins followed by NADPH addition and measured after 45 mins by LC-MS/MS analysis
- Format: ADME, Microsome
- TEST_CONDITIONS: time 50 min
OBSERVATION_TYPE: CLint at […] (µL/min/mg)
Your answer should be a plain number; it is taken to be in µL/min/mg.

Prompt: Find the recorded CLint at […] belonging to COc1ccc(C(Oc2ccc(N(CC(=O)O)S(=O)(=O)c3c(C)cc(C)cc3C)c3ccccc23)C(=O)O)cc1 (stereo unspecified) and report it.
Response: 1.57

###

- SYSTEM_TESTED: Cytochrome P450 2C9 (Homo sapiens, UniProt P11712)
- Sequence (P11712 whole entry): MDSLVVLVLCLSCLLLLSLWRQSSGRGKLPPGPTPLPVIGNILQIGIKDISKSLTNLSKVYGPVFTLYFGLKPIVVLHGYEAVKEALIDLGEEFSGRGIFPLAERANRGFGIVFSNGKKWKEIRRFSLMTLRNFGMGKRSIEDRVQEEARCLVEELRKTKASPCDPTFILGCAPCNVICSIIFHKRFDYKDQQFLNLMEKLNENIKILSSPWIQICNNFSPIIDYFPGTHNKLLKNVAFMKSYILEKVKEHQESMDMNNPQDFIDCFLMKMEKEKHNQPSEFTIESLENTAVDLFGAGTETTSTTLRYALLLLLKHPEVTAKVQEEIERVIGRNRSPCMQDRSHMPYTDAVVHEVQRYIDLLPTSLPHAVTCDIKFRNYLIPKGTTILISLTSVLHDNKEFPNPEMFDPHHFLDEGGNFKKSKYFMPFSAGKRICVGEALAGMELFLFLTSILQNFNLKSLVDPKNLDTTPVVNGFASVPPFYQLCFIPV
pIC50: −log10 of the molar value.
OBSERVATION_TYPE: pIC50

Prompt: Find the recorded pIC50 belonging to COc1ccc(C(Oc2ccc(N(CC(=O)O)S(=O)(=O)c3c(C)cc(C)cc3C)c3ccccc23)C(=O)O)cc1 (stereo unspecified) and report it.
Response: < 5.00

###

// Keap1/Nrf2 (Homo sapiens, UniProt Q14145) pIC50 records
Just so you know, pIC50 here is -log10 of the concentration in molar units; reply with that number alone.

Prompt: Find the recorded pIC50 belonging to CCOc1ccc(C(Oc2ccc(N(CC(=O)O)S(=O)(=O)c3c(C)cc(C)cc3C)c3ccccc23)C(=O)O)cc1 (stereo not given) and report it.
Response: 6.82

Prompt: Find the recorded pIC50 belonging to Cc1cc(C)c(S(=O)(=O)N(CC(=O)O)c2ccc(OC(C(=O)O)c3ccc(F)cc3)c3ccccc23)c(C)c1 (stereo not given) and report it.
Response: 6.77

Prompt: Find the recorded pIC50 belonging to Cc1cc(C)c(S(=O)(=O)N(CC(=O)O)c2ccc(OC(C(=O)O)c3ccc(OC(C)C)cc3)c3ccccc23)c(C)c1 (stereo not given) and report it.
Response: 6.30

Prompt: Find the recorded pIC50 belonging to NC(=O)c1ccc(S(=O)(=O)N(CC(=O)O)c2ccc(OC(C(=O)O)c3ccccc3)c3ccccc23)cc1 (stereo not given) and report it.
Response: 5.57

Prompt: Find the recorded pIC50 belonging to Cc1cc(C)c(S(=O)(=O)N(CC(=O)O)c2ccc(OC(C(=O)O)c3ccc(C(C)(C)C)cc3)c3ccccc23)c(C)c1 (stereo not given) and report it.
Response: 4.72

Source of measurements: ChEMBL document CHEMBL4706544
